Molecular target: human GLP-1R (SNAP-GLP-1R expressed in HEK293 cells) (human) (UniProt P43220)
Sequence (P43220 24-463): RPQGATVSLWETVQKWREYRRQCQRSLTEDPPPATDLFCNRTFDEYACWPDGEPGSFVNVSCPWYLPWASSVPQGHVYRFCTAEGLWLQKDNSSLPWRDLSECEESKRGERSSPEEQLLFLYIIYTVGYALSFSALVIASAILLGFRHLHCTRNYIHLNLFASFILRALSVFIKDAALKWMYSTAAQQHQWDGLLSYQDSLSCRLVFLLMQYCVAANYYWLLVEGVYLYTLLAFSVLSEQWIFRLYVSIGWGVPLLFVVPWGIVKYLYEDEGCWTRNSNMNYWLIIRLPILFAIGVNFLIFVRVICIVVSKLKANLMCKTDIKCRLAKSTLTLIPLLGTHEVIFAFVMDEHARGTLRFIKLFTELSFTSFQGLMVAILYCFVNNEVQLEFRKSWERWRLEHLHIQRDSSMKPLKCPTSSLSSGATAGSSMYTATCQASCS
Assay: cell-based or functional assay
Internalization % TOP by entry:
Form entry: value (%) — number only.

Guide cases for Internalization % TOP, answers given:
binder	Internalization % TOP [%]
YXQGTFTSDXSXXLDKKAQXAFIEYLIEXGESSGAPPPSGE (synthetic construct; SITE 2: note = 2-Aminoisobutyric Acid; SITE 10: note = 3-(4-Pyridyl)-L-alanine; SITE 12: note = L-ornithine; SITE 13: note = alpha-methyl-leucine; SITE 17: note = Lysine is chemically modified through conjugation of the epsilon-amino group of the Lysine side chain with (2-[2-(2-) [Example 222]	52.4
YXQGTFTSDFSXXLDKKAQXAFIEYLLEGGHSSGAPPPGGS (synthetic construct; SITE 2: note = 2-Aminoisobutyric Acid; SITE 12: note = L-ornithine; SITE 13: note = alpha-methyl-leucine; SITE 17: note = Lysine is chemically modified through conjugation of the epsilon-amino group of the Lysine side chain with (2-[2-(2-Amino-ethoxy)-ethoxy]-acetyl)-(gamma-Glu)) [Example 162]	44.8

For the next question, use this binder.
Short answer for YXQGTFTSDFSXXLDKKAQXAFIEYLLEXGPSSXAPPPSGS (synthetic construct; SITE 2: note = 2-Aminoisobutyric Acid; SITE 12: note = L-ornithine; SITE 13: note = alpha-methyl-leucine; SITE 17: note = Lysine is chemically modified through conjugation of the epsilon-amino group of the Lysine side chain with (2-[2-(2-Amino-ethoxy)-ethoxy]-acetyl)-(gamma-Glu)) [Example 238] : Internalization % TOP was 38.2
